- Target Of Assay: T1, human Chemokine like receptor 1 (human, UniProt Q99788 1-373)
- T1 sequence (looked up): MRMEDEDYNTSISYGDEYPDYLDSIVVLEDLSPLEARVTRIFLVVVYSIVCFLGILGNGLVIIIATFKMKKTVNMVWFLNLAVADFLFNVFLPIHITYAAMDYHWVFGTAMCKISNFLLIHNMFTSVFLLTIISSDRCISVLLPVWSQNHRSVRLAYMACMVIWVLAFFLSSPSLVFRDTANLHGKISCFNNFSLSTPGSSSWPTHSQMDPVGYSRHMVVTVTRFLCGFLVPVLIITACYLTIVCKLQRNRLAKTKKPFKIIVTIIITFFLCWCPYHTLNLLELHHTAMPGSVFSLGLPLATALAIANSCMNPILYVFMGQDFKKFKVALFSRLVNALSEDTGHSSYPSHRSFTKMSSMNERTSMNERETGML
- Method Description: cell-based or functional assay
Square brackets hold non-standard residues; d marks the D form. Ends that are not written are not given here. 1Nal = N[C@@H](Cc1cccc2ccccc12)C(=O)O; Tic = O=C(O)[C@@H]1Cc2ccccc2CN1; NMeL = CN[C@@H](CC(C)C)C(=O)O
Measured Property: EC50 (µM), activation of Tango CMKLR1-bla U2OS cells
// return numeric value only (unit: µM, not printed)

Record excerpt, results attached:
[dY]FLP[dS]Q[1Nal][dA][Tic]S-OH (N-terminus assumed; SMILES CC(C)C[C@H](NC(=O)[C@H](Cc1ccccc1)NC(=O)[C@H](N)Cc1ccc(O)cc1)C(=O)N1CCC[C@H]1C(=O)N[C@H](CO)C(=O)N[C@@H](CCC(N)=O)C(=O)N[C@@H](Cc1cccc2ccccc12)C(=O)N[C@H](C)C(=O)N1Cc2ccccc2C[C@H]1C(=O)N[C@@H](CO)C(=O)O) [YW-117]: 0.0039
[dY]F[NMeL]P[dS]QF[dA][Tic]S-OH (N-terminus assumed; SMILES CC(C)C[C@@H](C(=O)N1CCC[C@H]1C(=O)N[C@H](CO)C(=O)N[C@@H](CCC(N)=O)C(=O)N[C@@H](Cc1ccccc1)C(=O)N[C@H](C)C(=O)N1Cc2ccccc2C[C@H]1C(=O)N[C@@H](CO)C(=O)O)N(C)C(=O)[C@H](Cc1ccccc1)NC(=O)[C@H](N)Cc1ccc(O)cc1) [YW-98]: 0.003

Query: Name the reported EC50 (µM), activation of Tango CMKLR1-bla U2OS cells value associated with the binder [dY]FLP[dS]QF[dA][Ti1c]S-OH [YW-150]
Reply: 0.062
